# Measurement Target: Thromboxane synthase (Homo sapiens)
# Construct: MDS
# Sequence (P24557 whole entry): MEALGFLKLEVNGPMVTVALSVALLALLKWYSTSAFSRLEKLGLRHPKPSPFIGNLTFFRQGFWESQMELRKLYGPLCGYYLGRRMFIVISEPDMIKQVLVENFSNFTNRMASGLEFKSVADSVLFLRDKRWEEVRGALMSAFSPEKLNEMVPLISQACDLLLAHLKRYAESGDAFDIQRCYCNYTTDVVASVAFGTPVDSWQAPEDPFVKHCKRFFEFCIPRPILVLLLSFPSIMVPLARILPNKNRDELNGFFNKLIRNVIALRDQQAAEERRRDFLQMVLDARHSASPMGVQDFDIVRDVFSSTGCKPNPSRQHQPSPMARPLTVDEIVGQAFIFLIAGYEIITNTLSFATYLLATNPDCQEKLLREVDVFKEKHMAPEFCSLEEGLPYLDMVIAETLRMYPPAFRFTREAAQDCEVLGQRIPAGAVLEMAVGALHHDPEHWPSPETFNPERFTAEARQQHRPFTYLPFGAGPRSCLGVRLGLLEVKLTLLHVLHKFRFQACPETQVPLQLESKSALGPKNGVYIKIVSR
# Protocol Details: Thromboxane synthase activity (Table III comparison)
# Assay type: biochemical
# Applied Conditions: read-out: Thromboxane synthase inhibition IC50

{"Compound": "Cc1ccc(-c2nc3ccccc3n2Cc2ccccc2)o1 [Example 6]", "IC50, µM": 10}

* * *

# Test system: human platelet-rich plasma
# Protocol Details: Collagen-induced platelet aggregation in human platelet-rich plasma
# Assay type: cell-based
# Applied Conditions: human PRP, data not shown, read-out: IC50 collagen-induced platelet aggregation in human PRP
pIC50: −log10 of the molar value.
Measurement Label: pIC50

{"Compound": "Cc1ccc(-c2nc3ccccc3n2Cc2ccccc2)o1", "Reported": 4.19}
{"Compound": "CC(=O)Oc1ccccc1C(=O)O [aspirin, reference compound]", "Reported": 2.29}

* * *

# Measurement Target: TP receptor (Homo sapiens, UniProt P21731)
# Construct: expressed in transfected cells; host or cells: HEK-293
# Sequence (P21731 1-343): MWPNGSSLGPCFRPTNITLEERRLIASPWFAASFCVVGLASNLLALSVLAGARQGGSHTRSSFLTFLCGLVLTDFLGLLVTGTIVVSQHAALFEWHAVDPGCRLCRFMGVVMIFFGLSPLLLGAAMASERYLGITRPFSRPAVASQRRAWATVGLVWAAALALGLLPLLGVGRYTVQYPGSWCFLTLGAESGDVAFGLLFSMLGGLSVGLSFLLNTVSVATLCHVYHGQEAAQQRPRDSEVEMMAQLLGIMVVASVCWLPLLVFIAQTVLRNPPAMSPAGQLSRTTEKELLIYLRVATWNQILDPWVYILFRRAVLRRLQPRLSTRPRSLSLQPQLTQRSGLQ
# Protocol Details: [3H]SQ-29548 binding to TP receptor of recombinant HEK-293 cells
# Applied Conditions: read-out: thromboxane A2 receptor blockade IC50
pIC50: −log10 of the molar value.

{"Compound": "Cc1ccc(-c2nc3ccccc3n2Cc2ccccc2)o1 [Example 6]", "pIC50": 7.00}

* * *

# Test system: human platelet suspension
# Protocol Details: U46619-induced platelet aggregation in human platelet suspension
# Type: cell-based
# Applied Conditions: Homo sapiens, Platelet, U46619 1 μM; washed human platelets; read-out: IC50 U46619-induced aggregation
# Lookup of reported IC50 keyed by entry

{"Smiles Record": "Cc1ccc(-c2nc3ccc(F)cc3n2Cc2cccc(F)c2)o1", "IC50": "1170 nM"}
{"Smiles Record": "Cc1ccc(-c2nc3ccccc3n2Cc2ccccc2)o1", "IC50": "~2500 nM"}

* * *

# Test system: human platelet suspension
# Protocol Details: U46619-induced platelet aggregation in human platelet suspension
# Type: cell-based
# Applied Conditions: Homo sapiens, Platelet, U46619-induced aggregation, platelet suspension; read-out: P.S(U46619) IC50
Measurement Label: IC50 (µM)

{"Molecule": "Cc1ccc(-c2nc3cc(F)ccc3n2Cc2ccccc2F)o1 [Example 38a]", "Output Unit": "µM", "Reported": 4.14}
{"Molecule": "Cc1ccc(-c2nc3cc(F)ccc3n2Cc2ccccc2Cl)o1 [Example 31a]", "Output Unit": "µM", "Reported": 22.7}
{"Molecule": "Cc1ccc(-c2nc3ccc(F)cc3n2Cc2ccccc2C)o1 [Example 41b]", "Output Unit": "µM", "Reported": 2.38}
{"Molecule": "Cc1ccc(-c2nc3ccc(F)cc3n2Cc2ccccc2Cl)o1 [Example 31b]", "Output Unit": "µM", "Reported": 12.7}
